- TARGET ENTITY: UniProt P11712
- Sequence (P11712 whole entry): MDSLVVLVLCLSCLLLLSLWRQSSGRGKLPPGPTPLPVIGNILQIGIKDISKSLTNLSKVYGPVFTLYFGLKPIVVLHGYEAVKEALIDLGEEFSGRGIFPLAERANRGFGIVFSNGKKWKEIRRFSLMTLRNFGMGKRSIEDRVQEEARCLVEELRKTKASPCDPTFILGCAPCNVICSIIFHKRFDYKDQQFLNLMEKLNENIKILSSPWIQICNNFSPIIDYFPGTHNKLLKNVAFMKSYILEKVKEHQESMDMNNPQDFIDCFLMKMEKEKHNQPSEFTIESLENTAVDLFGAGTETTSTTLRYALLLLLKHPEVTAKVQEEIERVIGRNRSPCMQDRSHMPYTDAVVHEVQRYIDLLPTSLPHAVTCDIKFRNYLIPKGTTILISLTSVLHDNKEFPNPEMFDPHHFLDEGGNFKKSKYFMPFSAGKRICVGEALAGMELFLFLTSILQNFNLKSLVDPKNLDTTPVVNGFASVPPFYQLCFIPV
- TEST PROTOCOL: Percent inhibition of CYP450 2C9 at 1 uM concentration
- Assay type: ADME
METRIC: inhibition at 1 µM (%)

mol_smiles=O=C(CCCCCCC(=O)Nc1ccccc1)NO target_entity="UniProt P11712" metric="inhibition at 1 µM" assay_result=28
mol_smiles=O=C(NO)c1ccc(-c2ccc(CNCc3ccccc3)cn2)s1 target_entity="UniProt P11712" metric="inhibition at 1 µM" assay_result=-14
mol_smiles=O=C(NO)c1ccc(-c2ccn(CCNCc3ccc4c(c3)OCO4)n2)s1 target_entity="UniProt P11712" metric="inhibition at 1 µM" assay_result=0

* * *

- TARGET ENTITY: Histone deacetylase 1 (Homo sapiens, UniProt Q13547)
- Sequence (Q13547 whole entry): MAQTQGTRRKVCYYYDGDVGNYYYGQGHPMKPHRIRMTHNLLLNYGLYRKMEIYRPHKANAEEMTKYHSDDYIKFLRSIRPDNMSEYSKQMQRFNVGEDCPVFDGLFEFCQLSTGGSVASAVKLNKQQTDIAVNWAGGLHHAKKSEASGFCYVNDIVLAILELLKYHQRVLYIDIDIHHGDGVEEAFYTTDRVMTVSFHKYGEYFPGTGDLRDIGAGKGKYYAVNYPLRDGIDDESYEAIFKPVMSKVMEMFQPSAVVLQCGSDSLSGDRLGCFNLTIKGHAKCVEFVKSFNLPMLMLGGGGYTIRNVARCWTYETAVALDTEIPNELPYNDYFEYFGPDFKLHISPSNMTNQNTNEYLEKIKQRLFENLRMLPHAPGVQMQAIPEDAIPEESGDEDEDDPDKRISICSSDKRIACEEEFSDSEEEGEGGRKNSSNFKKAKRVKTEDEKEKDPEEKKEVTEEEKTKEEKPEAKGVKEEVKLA
- TEST PROTOCOL: Inhibition of HDAC activity measured by HDAC Fluorescent Activity Assay (mean of two experiments)
pIC50: −log10 of the molar value.
METRIC: pIC50

mol_smiles=O=C(NO)c1ccc(-c2ccc(CNCCc3ccccc3Cl)cn2)s1 metric=pIC50 assay_result=8.22
mol_smiles=O=C(NO)c1ccc(-c2cccc(CNCc3ccccc3)n2)s1 metric=pIC50 assay_result=6.44
mol_smiles=CN(Cc1ccccc1)Cc1ccc(-c2ccc(C(=O)NO)s2)nc1 metric=pIC50 assay_result=7.46
mol_smiles=O=C(NO)c1ccc(-c2ccncc2)s1 metric=pIC50 assay_result=5.90
mol_smiles=O=C(NO)c1ccc(-c2cccs2)s1 metric=pIC50 assay_result=5.60
mol_smiles=O=C(NO)c1ccc(-c2ccc(CNCCc3ccc(F)cc3)cn2)s1 metric=pIC50 assay_result=8.05
mol_smiles=O=C(NO)c1ccc(-c2ccc(CNCc3ccc4c(c3)OCCO4)cn2)s1 metric=pIC50 assay_result=7.96
mol_smiles=O=C(NO)c1ccc(-c2ccc(CCNCCc3ccccc3)cn2)s1 metric=pIC50 assay_result=7.51
mol_smiles=O=C(NO)c1ccc(-c2ccc(CNCCCc3ccccc3)cn2)s1 metric=pIC50 assay_result=7.74
mol_smiles=Cc1ccc(CCNCc2ccc(-c3ccc(C(=O)NO)s3)nc2)cc1 metric=pIC50 assay_result=7.85
mol_smiles=O=C(NO)c1ccc(-c2ncccn2)s1 metric=pIC50 assay_result=6.73
mol_smiles=O=C(NO)c1ccc(-c2ccc(CNc3ccccc3)cn2)s1 metric=pIC50 assay_result=7.80

* * *

In this section, each of the compounds is paired with its reported inhibition at 1 µM.
- TARGET ENTITY: CYP1A2 (Homo sapiens)
- Sequence (P05177 whole entry): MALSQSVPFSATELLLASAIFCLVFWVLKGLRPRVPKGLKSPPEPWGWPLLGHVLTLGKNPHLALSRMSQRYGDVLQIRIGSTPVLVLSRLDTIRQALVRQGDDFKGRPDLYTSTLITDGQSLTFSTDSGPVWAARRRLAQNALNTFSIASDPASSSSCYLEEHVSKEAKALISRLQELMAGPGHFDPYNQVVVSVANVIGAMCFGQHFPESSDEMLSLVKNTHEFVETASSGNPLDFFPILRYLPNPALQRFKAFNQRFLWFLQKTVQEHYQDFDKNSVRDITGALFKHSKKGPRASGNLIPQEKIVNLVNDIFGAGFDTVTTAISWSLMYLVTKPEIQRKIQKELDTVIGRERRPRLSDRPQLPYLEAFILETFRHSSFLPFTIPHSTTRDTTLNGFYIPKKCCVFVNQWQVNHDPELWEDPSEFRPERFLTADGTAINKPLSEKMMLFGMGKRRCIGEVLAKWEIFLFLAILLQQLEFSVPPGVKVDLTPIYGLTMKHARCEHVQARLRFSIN
- TEST PROTOCOL: Percent inhibition of CYP450 1A2 at 1 uM concentration
- Assay type: ADME
METRIC: inhibition at 1 µM (%)

mol_smiles=O=C(NO)c1ccc(-c2ccn(CCNCc3ccc4c(c3)OCO4)n2)s1 assay_result=9
mol_smiles=O=C(CCCCCCC(=O)Nc1ccccc1)NO assay_result=14
mol_smiles=O=C(NO)c1ccc(-c2ccc(CNCc3ccccc3)cn2)s1 assay_result=17

* * *

In this section, each of the compounds is paired with its reported bioavailability.
- TEST PROTOCOL: Oral bioavailability after oral dosing at 5 mg kg-1
- Assay type: ADME, organism-based
- DETAILS: rat, in vivo
METRIC: bioavailability

compound=O=C(NO)c1ccc(-c2ccc(CNCc3ccccc3)cn2)s1 assay_result=50%
compound=O=C(NO)c1ccc(-c2ccn(CCNCc3ccc4c(c3)OCO4)n2)s1 assay_result=2%
compound="O=C(CCCCCCC(=O)Nc1ccccc1)NO [VORINOSTAT]" assay_result=16%

* * *

- TEST PROTOCOL: Half life after i.v. dosing at 1 mg kg-1
- Assay type: ADME, organism-based
- Parameters: dose 1 mg kg-1, route intravenous
- DETAILS: mouse, in vivo, iv
METRIC: half-life (min)

mol_smiles=O=C(NO)c1ccc(-c2ccn(CCNCc3ccc4c(c3)OCO4)n2)s1 assay_result=150
mol_smiles=O=C(CCCCCCC(=O)Nc1ccccc1)NO assay_result=48
mol_smiles=O=C(NO)c1ccc(-c2ccc(CNCc3ccccc3)cn2)s1 assay_result=10.2

* * *

- TEST PROTOCOL: Steady state volume of distribution (Vdss) after i.v. dosing at 1 mg kg-1
- Type: ADME, organism-based
- Design: dose 1 mg kg-1, route intravenous
- DETAILS: rat, in vivo, iv, read-out: Vdss
In this section, each of the compounds is paired with its reported Vd.
METRIC: Vd

mol_smiles=O=C(CCCCCCC(=O)Nc1ccccc1)NO assay_result="1.6 L/kg"
mol_smiles=O=C(NO)c1ccc(-c2ccc(CNCc3ccccc3)cn2)s1 assay_result="2.9 L/kg"
mol_smiles=O=C(NO)c1ccc(-c2ccn(CCNCc3ccc4c(c3)OCO4)n2)s1 assay_result="0.9 L/kg"

* * *

- System: MCF7
- TEST PROTOCOL: Inhibition of MCF7 cell proliferation (mean of two experiments)
- Type: functional, cell-based
- DETAILS: Homo sapiens
pIC50: −log10 of the molar value.
Returns 1 if the recorded pIC50 is greater than or equal to 7, and 0 otherwise.

mol_smiles=O=C(NO)c1ccc(-c2ccc(CNCc3ccc4c(c3)OCO4)cn2)s1 class=1
mol_smiles=O=C(NO)c1ccc(-c2ccccn2)s1 class=0
mol_smiles=Cc1cccc(CCNCc2ccc(-c3ccc(C(=O)NO)s3)nc2)c1 class=1

* * *

In this section, each of the compounds is paired with its reported pIC50.
- TARGET ENTITY: Histone deacetylase 1 (Homo sapiens, UniProt Q13547)
- TEST PROTOCOL: Inhibition of HDAC activity measured by HDAC Fluorescent Activity Assay (mean of two experiments)
pIC50: −log10 of the molar value.
METRIC: pIC50

mol_smiles=Cc1cccc(CCNCc2ccc(-c3ccc(C(=O)NO)s3)nc2)c1 assay_result=8.05
mol_smiles=O=C(NO)c1ccc(-c2ccc(CNCc3ccc(-c4ccccc4)cc3)cn2)s1 assay_result=8.15
mol_smiles=O=C(NO)c1ccc(-c2ccc(CNCCc3ccccc3)cn2)s1 assay_result=7.92
mol_smiles=O=C(NO)c1ccc(-c2cccnc2)s1 assay_result=5.95
mol_smiles=O=C(NO)c1ccc(-c2ccc(CCNCc3ccc4c(c3)OCO4)cn2)s1 assay_result=8.05
mol_smiles=COc1ccccc1CCNCc1ccc(-c2ccc(C(=O)NO)s2)nc1 assay_result=7.77

* * *

- Tested on: MCF7
- TEST PROTOCOL: Inhibition of MCF7 cell proliferation (mean of two experiments)
- Format: functional, cell-based
- DETAILS: Homo sapiens
Sorting guide: entries reporting IC50 beneath 100 nM go in the t pile, the rest go in the f pile.

mol_smiles=COc1ccccc1CCNCc1ccc(-c2ccc(C(=O)NO)s2)nc1 class=t
mol_smiles=O=C(NO)c1ccc(-c2ccc(CCNCc3ccccc3)cn2)s1 class=t
mol_smiles=O=C(NO)c1ccc(-c2ccc(CNCc3ccc(Cl)cc3)cn2)s1 class=f
mol_smiles=Cc1ccccc1CCNCc1ccc(-c2ccc(C(=O)NO)s2)nc1 class=t
mol_smiles=O=C(NO)c1ccc(-c2ccc(CNCc3ccccc3)cn2)s1 class=t
mol_smiles=O=C(NO)c1ccc(-c2cccc(CNCc3ccccc3)n2)s1 class=f
mol_smiles=O=C(NO)c1ccc(-c2ccc(CNCCOc3ccccc3)cn2)s1 class=f
mol_smiles=O=C(NO)c1ccc(-c2cccc(CNCCc3ccccc3)n2)s1 class=f
mol_smiles=O=C(NO)c1ccc(-c2ccccc2)s1 class=f
mol_smiles=O=C(NO)c1ccc(-c2ccc(CNCc3ccc(-c4ccccc4)cc3)cn2)s1 class=f
mol_smiles=O=C(NO)c1ccc(-c2ccc(CN3CCc4ccccc4C3)cn2)s1 class=f

* * *

In this section, each of the compounds is paired with its reported AUC.
- TEST PROTOCOL: AUC after i.p. dosing at 5 mg kg-1
- Type: ADME, organism-based
- Parameters: dose 5 mg kg-1, route intraperitoneal
- DETAILS: mouse, plasma, ip
METRIC: AUC (ng·h/mL)

mol_smiles=O=C(CCCCCCC(=O)Nc1ccccc1)NO endpoint_unit=ng·h/mL assay_result=600
mol_smiles=O=C(NO)c1ccc(-c2ccc(CNCc3ccccc3)cn2)s1 endpoint_unit=ng·h/mL assay_result=1250
mol_smiles=O=C(NO)c1ccc(-c2ccn(CCNCc3ccc4c(c3)OCO4)n2)s1 endpoint_unit=ng·h/mL assay_result=7200

* * *

In this section, each of the molecules is paired with its reported Papp.
- TEST PROTOCOL: Permeability (Papp) run from pH 6.5-7.4
- Type: ADME, cell-based
- DETAILS: human, Caco-2, pH 6.5
METRIC: Papp (×10⁻⁶ cm/s)

mol_smiles=O=C(NO)c1ccc(-c2ccc(CNCc3ccccc3)cn2)s1 metric=Papp assay_result=15.4
mol_smiles=O=C(NO)c1ccc(-c2ccn(CCNCc3ccc4c(c3)OCO4)n2)s1 metric=Papp assay_result=4.2
mol_smiles=O=C(CCCCCCC(=O)Nc1ccccc1)NO metric=Papp assay_result=8

* * *

- TEST PROTOCOL: AUC after oral dosing at 5 mg kg-1
- Assay type: ADME, organism-based
- Parameters: dose 5 mg kg-1, route oral
- DETAILS: rat, plasma
METRIC: AUC (ng·h/mL)

mol_smiles=O=C(NO)c1ccc(-c2ccc(CNCc3ccccc3)cn2)s1 endpoint_unit=ng·h/mL assay_result=3300
mol_smiles=O=C(NO)c1ccc(-c2ccn(CCNCc3ccc4c(c3)OCO4)n2)s1 endpoint_unit=ng·h/mL assay_result=100
mol_smiles=O=C(CCCCCCC(=O)Nc1ccccc1)NO endpoint_unit=ng·h/mL assay_result=400
